biological target: T1, human Claudin18.1 (CLDN18.1) (human, UniProt P56856 1-261); test: FACS on CHOK1-18.1 cells;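 further: test antibody binding to the cells detected by flow cytometry using a fluorescent dye-labelled secondary antibody, read out as median fluorescence intensity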
T1 construct: whole, on cells; also called human Claudine18.1
T1 sequence (P56856 whole entry): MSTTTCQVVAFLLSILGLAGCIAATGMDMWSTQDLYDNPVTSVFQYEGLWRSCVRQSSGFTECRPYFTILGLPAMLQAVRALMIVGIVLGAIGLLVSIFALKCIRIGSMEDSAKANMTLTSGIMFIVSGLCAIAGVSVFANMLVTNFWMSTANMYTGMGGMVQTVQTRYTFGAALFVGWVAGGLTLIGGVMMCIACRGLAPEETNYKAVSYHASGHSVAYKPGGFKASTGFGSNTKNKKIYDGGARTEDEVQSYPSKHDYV
MEASURED_PROPERTY: FACS MFI

Asked: Which measured FACS MFI value corresponds to Ab16 (antibody, V domains shown, mouse monoclonal (hybridoma)) VH: EVMLVESGGGLVKPGGSLKLSCAASGFTFNSYTMSWVRQTPEKRLEWVATITVIGGNTYYLDSVKGRFTISIDNGKNTLYLQMSSLRSEDTALYYCARMGQTQRNAMDYWGQGTSVTVSS VL: DIVMTQSPSSLSVSAGQKVTMRCKSSQSLLNSGNQKNYLAWYQQKLGQPPKLLIYGASTRESGVPDRFSGSGSGTDFTLTITSVQAEDLAVYYCQNDYSFPLTFGAGTKLELK ?
Given back: 80.8

Asked: Which measured FACS MFI value corresponds to Ab08 (antibody, V domains shown, mouse monoclonal (hybridoma)) VH: QVQLQQPGAELVKPGASVKLSCKASGYTFTSYLLHWVKQRPGQGLEWIGMIHPNGGSTNYNEKFKTKATLTVDKSSSTAYMQLSSLTSEDSAVYYCAPVYFGNSFAYWGQGTLVTVSA VL: DIVMTQSPSSLTVTAGEKVTMSCKSSQSLLNSGNQKNYLTWYQQKPGQPPKLLIYWASTRESGVPDRFTGSGSGTDFTLTISSVQAEDLAVYYCQNDYYYPFTFGSGTKLEKK ?
Given back: 97

Asked: Which measured FACS MFI value corresponds to Ab02 (antibody, V domains shown, mouse monoclonal (hybridoma)) VH: QVQLKESGPGLVAPSQSLSITCTVSGFSLTSYAINWVRQPPGKGLEWLGVIWTGGGTNYNSALKSRLSINKDNSKSQVFLKMNSLQTDDTARYYCARFYDGYYSWFAYWGQGTLVTVSA VL: DIVMTQSHKFMSTSVGDRVSITCKASQDVGTAVTWYQQKPGQSPKLLIYWASTRHTGVPDRFTGSGSGTDFTLTISNVQSEDLADYFCQQYSSYPFTFGSGTKLEIK ?
Given back: 101
